System: HeLa cells
Protocol Summary: MTT antiproliferative assay, HeLa
Type: cell-based, human
Reported Conditions: Homo sapiens, 72 h, MTT, read-out: Calculated IC50 Value
Measurement Type: IC50 (µM)

# annotated cases, reported IC50 shown
INSERT INTO results (chemical_string, target_desc, measurement_type, value_observed) VALUES
  ('C=Cc1cc(O)cc2c1-c1ccc(O)c(C)c1CC2', 'HeLa cells', 'IC50', 3.68),
  ('C=Cc1c(C)c(O)cc2c1-c1ccc(OC)c(C)c1CC2', 'HeLa cells', 'IC50', 11.3);

a = C=Cc1cc(O)cc2c1-c1ccc(OC)c(C)c1CC2
b = C=Cc1cc(CO)cc2c1-c1ccc(O)c(C)c1CC2
c = C=Cc1c(C)c(O)cc2c1-c1cc(-c3cc4c(c(C)c3O)CCc3cc(O)c(C)c(C=C)c3-4)c(O)c(C)c1CC2
Rank the 3 compounds: largest IC50 first, smallest last. The reply should contain the labels ordered as requested.
a, b, c
(a: 10.7 µM, b: 4.17 µM, c: 1.86 µM)
